meta.source: patent US8093273B2

Assay: Caco-2 permeability
Format: in vitro ADME, human
Conditions: human; in vitro Caco-2 intestinal transport model; read-out: % Transported Paap
Would you mind telling me the reported Papp of each entry?
Give bare numbers, in ×10⁻⁶ cm/s.

The cases that follow already have their Papp on record.
Compound	Unit Annotation	Papp
Oc1ccc(/C=C/c2cc(O)cc(O)c2)cc1 [Resveratrol, resveratrol, reference compound]	×10⁻⁶ cm/s	3.34
O=c1cc(-c2ccccc2)oc2cc(O)cc(O)c12 [5,7-Dihydroxy-2-phenyl-4H-chromen-4-one, 5,7-Dihydroxy-2-phenyl-chromen-4-one, reference compound]	×10⁻⁶ cm/s	0.122
COc1ccc2c(=O)cc(-c3ccc(O)cc3)oc2c1 [reference compound]	×10⁻⁶ cm/s	6.92

Now examine the next entry.
(Q) Query (compound): O=c1cc(-c2ccc(O)cc2)oc2cc(O)cc(O)c12 [reference compound] ; field requested: Papp
(A) 1.5

* * *

Experiment: Caco-2 permeability
Type: in vitro ADME, human
Details: human, Caco-2
Would you mind telling me the reported Papp of each entry?
Output should be the measured figure followed by the unit it is expressed in.

The cases that follow already have their Papp on record.
Compound	Papp
Oc1ccc(-c2cc3ncccc3cn2)cc1 [Example 57, 4-(1,6-naphthyridin-7-yl)phenol]	5.34 ×10⁻⁶ cm/s
O=c1cc(-c2ccc(O)cn2)oc2ccccc12 [Example 46, 2-(5-hydroxy-pyridin-2-yl)-chromen-4-one]	1.23 ×10⁻⁶ cm/s

Now examine the next entry.
(Q) Query (compound): O=c1cc(-c2ccc(O)c(F)c2)oc2ncccc12 [Example 37] ; field requested: Papp
(A) 2.06 ×10⁻⁶ cm/s

* * *

Would you mind telling me the reported melting point of each entry?

The cases that follow already have their melting point on record.
Molecule	Result
O=c1cc(-c2ccc(O)c(Cl)c2)oc2ncccc12 [Example 41]	259 to 262 °C
Cc1c(-c2ccc(O)cc2)oc2ccccc2c1=O [Example 24]	241 to 242 °C

Here are 4 molecules. What values of melting point were reported for them?
1. O=c1cc(-c2ccc(C[n+]3ccccc3)cc2)oc2ccc(O)cc12.[Cl-]
2. O=c1cc(-c2cc(F)c(O)c(F)c2)oc2ccccc12 [Example 6]
3. O=c1cc(-c2ccc(CO)cc2)oc2ccc(O)cc12 [Example 14]
4. Oc1ccc(-c2cc3ccccc3cn2)cc1 [Example 54, 4-isoquinolin-3-yl-phenol]

(A)
243 to 247 °C
275 to 276 °C
262 to 265 °C
218 to 219 °C

Here are 6 molecules. What values of melting point were reported for them?
1. CC(=O)Oc1ccc(C2=COc3ccccc3O2)cc1 [Example 77]
2. CNc1nc(-c2ccc(O)c(F)c2)cc2c(OC)cccc12 [Example 58]
3. O=c1cc(-c2ccc(O)cc2[N+](=O)[O-])oc2ccccc12 [Example 10, 2-(4-Hydroxy-2-nitrophenyl)chromen-4-one]
4. COc1cc(OC)c2c(=O)cc(-c3ccc(O)cc3)oc2c1 [Example 18]
5. O=C1C=C(c2ccc(O)cc2)S(=O)(=O)c2ccccc21 [Example 66]
6. O=c1c(-c2ccc(O)cc2)coc2ccccc12 [Example 84, 3-(4-Hydroxyphenyl)-4H-chromen-4-one]

(A)
["123 to 125 °C", "185 to 187 °C", "277 to 279 °C", "301 to 303 °C", "222 to 224 °C", "237 to 238 °C"]
